Assay: chemical genetic growth profiling, strain panel (AID 1159580);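 note: tested at 20 µM; growth read once vehicle control cultures reached saturation at 30 °C; lower values mean less growth of the strain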
Conditions: S. cerevisiae deletion strains, growth OD, locus YEL061C, strain CIN8 (second series)
In all, about 5,500 compounds went through this assay and about 2,000 (36%) were called active. Another 18% or so got no clear call; they are omitted. Cut-off read from the data, not from the text of the source: active = normalized growth mostly below about 0.91 (no sharp cut-off); inconclusive = no clear call, values can overlap the other calls; inactive = mostly above about 0.92. The list shows a part of the results.
# valid calls are Y (active), N (inactive); nothing else

**Query** Which outcome did this test record for the molecule CCCCCCCC/C=C/CCCCCCCCOP(=O)([O-])OCC[N+](C)(C)C ?
**Result** Y

**Query** And CC(C)(CO)C(O)C(=O)NCCCO (centres undefined) ?
**Result** N

**Query** Entry CN1CCCC(n2nc(Cc3ccc(Cl)cc3)c3ccccc3c2=O)CC1 (centres undefined) please
**Result** N

**Query** Another molecule to look at: COc1cc2c(cc1OC)C(=O)C(CC1CCN(Cc3ccccc3)CC1)C2 (centres undefined)
**Result** N

**Query** Now give it for COc1ccc2c(c1)OC[C@@H](Cc1ccc(OC)c(OC)c1)[C@@H]2O too.
**Result** N

**Query** Next molecule up: COC(=O)COc1cc(Cl)c(Cl)cc1Cl
**Result** N

**Query** Would you mind doing C[C@@H]1O[C@@H](O[C@H]2[C@@H](Oc3cc(O)c4c(c3)O[C@H](c3ccc(O)cc3)CC4=O)O[C@H](CO)[C@@H](O)[C@@H]2O)[C@H](O)[C@H](O)[C@H]1O as well?
**Result** N

**Query** Query C[CH2][Hg][S]c1ccccc1C(=O)O next
**Result** Y

**Query** Another molecule to check: COC(=O)C1=COC(OC2OC(CO)C(O)C(O)C2O)C2C(C)CC(=O)C12O (centres undefined)
**Result** N

**Query** And the next one, C1CCc2nnnn2CC1 ?
**Result** N

**Query** Quick one: C=CC1=C(C(=O)O)N2C(=O)[C@@H](NC(=O)/C(=N/O)c3csc(N)n3)[C@H]2SC1
**Result** N

**Query** And the next one, COc1ccc2cc1Oc1ccc(cc1)C[C@H]1c3cc(c(OC)cc3CCN1C)Oc1c(OC)c(OC)cc3c1[C@H](C2)N(C)CC3 ?
**Result** N

**Query** Next up: COC(=O)[C@@H]1C(O)CC[C@H]2CN3CCc4c([nH]c5ccccc45)[C@@H]3C[C@@H]21 (some centres undefined)
**Result** N

**Query** Follow-up item: NC(N)=NOCC[C@H](N)C(=O)O
**Result** N

**Query** Same lookup for CC(=O)OC1CC23CC24CCC(OC2OCC(O)C(O)C2O)C(C)(C)C4CCC3C2(C)CC3OC4(CC(C)C3C12C)OC(O)C1(C)OC41 (centres undefined) , please.
**Result** N

**Query** Then this molecule: COc1cc(OC)c2c(c1)O[C@H](c1ccc(OC)c(OC)c1)[C@@H](O)C2
**Result** N

**Query** What about this molecule? OCc1ccccc1O[C@@H]1O[C@H](CO)[C@@H](O)[C@H](O)[C@H]1O
**Result** N

**Query** Same question for CCSC(=N)N please.
**Result** N

**Query** Same question for CCOC(=O)c1ncn2c1CN(C)C(=O)c1cc(F)ccc1-2 please.
**Result** N

**Query** Field entry: CC(C)[N+](C)(CCOC(=O)C1c2ccccc2Oc2ccccc21)C(C)C
**Result** N

**Query** Entry to check: COc1ccc([C@@H]2CC(=O)c3c(O)cc(O)cc3O2)cc1O
**Result** N

**Query** Can you check NC(=O)N1c2ccccc2CC(=O)c2ccccc21 next?
**Result** N

**Query** How about this molecule: CC(=O)O[C@@](C)(CCC=C(C)C)C1CC=C(C)CC1 (some centres undefined)
**Result** N

**Query** What do you get for O=C(/C=C/c1ccccc1)O[C@H]1C[C@@H](O)[C@]2(O)C=CO[C@@H](O[C@@H]3O[C@H](CO)[C@@H](O)[C@H](O)[C@H]3O)[C@H]12 ?
**Result** N

**Query** Then CN=C(NC#N)NCCSCc1nc[nH]c1C ?
**Result** N

**Query** Similarly, CCC1(c2ccc(N)cc2)CCC(=O)NC1=O (centres undefined) ?
**Result** N

**Query** Same thing, different molecule: COc1ccc(C2CC(=O)c3ccc(OC)cc3O2)cc1 (centres undefined)
**Result** N

**Query** Would you mind doing CN1CCc2cc3c(cc2C1O)OCO3 (centres undefined) as well?
**Result** N

**Query** Please give the result for CCCCCCCCCCCCCCCCOP(=O)([O-])OCC[N+](C)(C)C too.
**Result** Y

**Query** What about O=C1C[C@@H](c2ccc(O)cc2)Oc2cc(O)cc(O)c21 ?
**Result** N

**Query** Do the same for CN1C2CC3C[C@H]1C(O3)C2O (some centres undefined) please
**Result** N

**Query** Do the same for O=C(O)C1CC([C@@H]2CCCCN2)CN2CCCCC12 (some centres undefined) please
**Result** N

**Query** // same read-out, input: COc1ccc(C[C@H]2NC[C@H](O)[C@H]2OC(C)=O)cc1
**Result** N

**Query** Then this molecule: Cc1ccc(O)cc1
**Result** N

**Query** How about this molecule: CCCCCC(C)N (centres undefined)
**Result** N

**Query** Record: CC(C)N(C(=O)CCl)c1ccccc1
**Result** N

**Query** Next up: CNc1ccccc1C(=O)N1CCc2c([nH]c3ccccc23)C1=O
**Result** N

**Query** Again, but for CN=C(NC#N)NCCSCc1nc(N=C(N)N)cs1
**Result** N

**Query** Then this molecule: O=C(Cc1ccccc1)NO
**Result** N

**Query** And for N#Cc1c(Cl)c(Cl)c(Cl)c(C#N)c1Cl ?
**Result** Y

**Query** Next: CCC1(C)CC(=O)NC1=O (centres undefined)
**Result** N

**Query** Can you handle COC(=O)C1[C@H]2C[C@H]3c4[nH]c5ccccc5c4CCN3C[C@@H]2CC[C@@H]1O (some centres undefined) next?
**Result** N

**Query** Same thing, different molecule: C=C1CC[C@H](O)C/C1=C/C=C1\CCC[C@]2(C)C([C@H](C)/C=C/[C@H](C)C(C)C)CC[C@@H]12 (some centres undefined)
**Result** N

**Query** Also need C[N+](C)(C)CC(=O)[O-] , thanks.
**Result** N
